Values were extracted from patent US20110237779A1.

# Test System: T1, human tissue factor (human, UniProt P13726 33-251, limits assumed)
# T1 construct: construct not described; also called TF
# Experiment Description: phage ELISA, solution competition: Fab-phage incubated with serially diluted TF, unbound phage captured on TF-coated wells; IC50 used as affinity estimate
Readout: IC50 (nM)

1. D3 library clone, CDR-L2 YAPGPAD (Fab, V domains shown, Changes against the D3 direct graft (Kabat): VL T52P, S53G, L54P; copies: 1 + 1) VH: EVQLVESGGGLVQPGGSLRLSCAASGFNIKDYYMHWVRQAPGKGLEWVGWIDPENGNTIYDPKFQDRFTISADTSKNTAYLQMNSLRAEDTAVYYCARDTAAYFDYWGQGTLVTVSS VL: DIQMTQSPSSLSASVGDRVTITCKASRDIKSYLSWYQQKPGKAPKLLIYYAPGPADGVPSRFSGSGSGTDFTLTISSLQPEDFATYYCLQHGESPFTFGQGTKVEIK = 10
2. D3 library clone, CDR-L2 YAPSLAD (Fab, V domains shown, Change against the D3 direct graft (Kabat): VL T52P; copies: 1 + 1) VH: EVQLVESGGGLVQPGGSLRLSCAASGFNIKDYYMHWVRQAPGKGLEWVGWIDPENGNTIYDPKFQDRFTISADTSKNTAYLQMNSLRAEDTAVYYCARDTAAYFDYWGQGTLVTVSS VL: DIQMTQSPSSLSASVGDRVTITCKASRDIKSYLSWYQQKPGKAPKLLIYYAPSLADGVPSRFSGSGSGTDFTLTISSLQPEDFATYYCLQHGESPFTFGQGTKVEIK = 4
3. D3 library clone, CDR-L2 DAIGLAD (Fab, V domains shown, Changes against the D3 direct graft (Kabat): VL Y50D, T52I, S53G; copies: 1 + 1) VH: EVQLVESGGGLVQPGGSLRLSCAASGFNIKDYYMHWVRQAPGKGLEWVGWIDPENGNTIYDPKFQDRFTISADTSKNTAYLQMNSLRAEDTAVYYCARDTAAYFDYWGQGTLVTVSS VL: DIQMTQSPSSLSASVGDRVTITCKASRDIKSYLSWYQQKPGKAPKLLIYDAIGLADGVPSRFSGSGSGTDFTLTISSLQPEDFATYYCLQHGESPFTFGQGTKVEIK = 17
